The origin of these recorded values is patent US10688080B2.

- target system: KPC-2 (Klebsiella pneumoniae, UniProt Q9F663)
- Sequence (Q9F663 25-293 limits assumed): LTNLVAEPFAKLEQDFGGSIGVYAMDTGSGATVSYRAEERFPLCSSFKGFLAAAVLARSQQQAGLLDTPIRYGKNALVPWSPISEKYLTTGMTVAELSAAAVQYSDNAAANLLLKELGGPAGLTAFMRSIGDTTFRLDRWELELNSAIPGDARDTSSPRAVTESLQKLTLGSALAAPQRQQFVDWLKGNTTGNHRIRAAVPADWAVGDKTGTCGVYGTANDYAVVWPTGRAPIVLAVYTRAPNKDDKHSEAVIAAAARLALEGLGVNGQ
- test protocol: Steady-state kinetic nitrocefin hydrolysis inhibition, KPC-2
experimental readout: log10(Ki) (log10 of the value in µM)

- CC1(C(=O)Nc2nnn[nH]2)CN(S(C)(=O)=O)c2ccccc21 (stereo not shown): 3.43
- O=C(Nc1nnn[nH]1)C1CN(C(=O)c2cccc(C(F)(F)F)c2)c2ccccc21 (stereo not shown): 0.08
- O=C(Nc1nnn[nH]1)[C@@H]1CCN(S(=O)(=O)c2cccc(C(F)(F)F)c2)C1: 2.67
- O=C(Nc1nnn[nH]1)C(Nc1ccccc1)c1ccccc1 (stereo not shown): 2.72
- O=C(Nc1nc(C(=O)Nc2nnn[nH]2)c(-c2ccccc2)s1)c1nccs1: 1.41
- CC1(C(=O)Nc2nnn[nH]2)CN(C(=O)c2cccc(C(F)(F)F)c2)c2ccccc21 (stereo not shown): 2.55
- O=C(Nc1nnn[nH]1)[C@H]1CCN(C(=O)c2cccc(C(F)(F)F)c2)C1: 3.30
- O=C(Nc1nnn[nH]1)[C@@H]1CCCN(S(=O)(=O)c2cccc(C(F)(F)F)c2)C1: 1.89
- O=C(CNc1ccccc1)Nc1nnn[nH]1: 3.08
- O=C(Nc1nnn[nH]1)[C@H]1CCN(S(=O)(=O)c2cccc(C(F)(F)F)c2)C1: 3.18
- O=C(Nc1nnn[nH]1)[C@@H]1CCCN(C(=O)c2cccc(C(F)(F)F)c2)C1: 2.04
- O=C(Nc1nnn[nH]1)c1cn(S(=O)(=O)c2cccc(C(F)(F)F)c2)c2ccccc12: 2.48
- O=C(Nc1nnn[nH]1)C(Sc1ccccc1)c1ccccc1 (stereo not shown): 1.42
- O=C(Nc1nc(C(=O)Nc2nnn[nH]2)c(-c2ccccc2)s1)c1ncc[nH]1.O=CO: 2.05
- O=C(Nc1nnn[nH]1)c1c[nH]c2ccccc12: 3.48
- O=C(Nc1nnn[nH]1)[C@@H]1CCN(C(=O)c2cccc(C(F)(F)F)c2)C1: 3.30
